target: Human vitronectin receptor (αvβ3) (Homo sapiens, UniProt P05106+P06756); construct: Human vitronectin receptor (αvβ3) was purified from human placenta; from tissue; host or cells: human placenta; experiment: Vitronectin adhesion assay (solid phase receptor assay, competition with biotinylated vitronectin); format: binding; conditions: purified receptor from human placenta; 1 nM biotinylated vitronectin; highest concentration tested 1.0 x 10^-4 M; read-out: AvB3 IC50
Structures can show the parent of a compound that is named as a salt.
Assignment: determine reported IC50 for the given molecules.
Answers are plain numbers, in nM.

For orientation, consider the following solved cases.
{"molecule": "CC(CC(=O)O)c1ccc(NC(=O)c2cccc(NC(=N)N)c2)cc1 (stereo not shown) [Example 31, trifluoroacetate salt]", "system name": "Human vitronectin receptor (αvβ3) (Homo sapiens, UniProt P05106+P06756)", "units label": "nM", "reading": 114}
{"molecule": "NC(N)=Nc1cccc(C(=O)Nc2ccc(CCC(=O)O)cc2)c1 [Example 64, hydrochloride]", "system name": "Human vitronectin receptor (αvβ3) (Homo sapiens, UniProt P05106+P06756)", "units label": "nM", "reading": 21.2}

Parameter requested: IC50. Apply to each item below.
1. COC(=O)C(C)Oc1ccc(NC(=O)c2cccc(NC(=N)N)c2)cc1 (stereo not shown) [Example 85C]
2. CCCCS(=O)(=O)N[C@@H](Cc1ccc(NC(=O)c2cc(NC3=NCCCCC3)cc(C(F)(F)F)c2)cc1)C(=O)O [Example 6, trifluoroacetate salt]
3. CCOC(=O)CS(=O)(=O)c1ccc(NC(=O)c2cccc(NC(=N)N)c2)cc1 [Example 80, monohydrate trifluoroacetate salt]
4. COC(=O)c1cc(NC(=O)c2cccc(NC(=N)N)c2)ccc1CCC(=O)O [Example 101B, bis(trifluoroacetate) salt]
5. COc1cc(NC(=O)c2cccc(NC(=N)N)c2)ccc1CCC(=O)O [Example 115, trifluoroacetate salt]

1: 39600; 2: 0.51; 3: 44200; 4: 35; 5: 24
